Documented Ki across a set of compounds
# Assayed Target: human adenosine A1 receptor (Homo sapiens)
# Construct: expressed in transfected cells; host or cells: HEK293 cells infected with BacMam (the same paragraph also labels the preparation CHO-hA1)
# Sequence (P30542 whole entry): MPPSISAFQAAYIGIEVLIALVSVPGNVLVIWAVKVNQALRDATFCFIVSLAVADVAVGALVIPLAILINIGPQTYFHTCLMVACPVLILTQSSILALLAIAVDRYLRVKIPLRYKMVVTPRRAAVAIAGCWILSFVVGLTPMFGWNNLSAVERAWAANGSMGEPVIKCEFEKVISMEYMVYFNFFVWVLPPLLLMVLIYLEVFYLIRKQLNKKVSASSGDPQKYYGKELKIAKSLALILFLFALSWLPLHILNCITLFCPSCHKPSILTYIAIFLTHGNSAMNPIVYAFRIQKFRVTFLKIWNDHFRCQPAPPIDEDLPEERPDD
# Test: Inhibition binding assay, human adenosine A1 receptor membranes, [3H]DPCPX
# Condition Label: 1 nM [3H]DPCPX, 25° C., 1 h; IC50 converted to Ki with Cheng-Prusoff; read-out: A1 pKi (converted)
# Experimental: Inhibition binding assays were performed using 0.2 μg of membranes prepared from HEK293 cells infected with BacMam human adenosine A2A receptor or 1.4 μg of membranes prepared from HEK293 cells infected with BacMam human adenosine A1 receptor. […] Bound radioactivity was determined by liquid scintillation counting and inhibition curves were analysed using a four-parameter logistic equation. […]
# output: bare number, implied unit nM

Known Ki results, listed for orientation:
Cc1cc(-c2c(-c3ccccc3)nc(N)n3c(=O)n([C@H](C)c4ccncc4)nc23)cc(C)n1 [Example 1-26] | 794
Cc1cc(-c2c(-c3ccccc3)nc(N)n3c(=O)n(Cc4ccc(F)cn4)nc23)cc(CO)n1 [Example 1-44] | 398
Cc1cc(-c2c(-c3ccccc3)nc(N)n3c(=O)n(C(CN)c4c(F)cccc4F)nc23)cc(C)n1 (stereo not shown) [Example 1-34] | 100

Next compound, please.
Ask: For the record Cc1cc(-c2c(-c3ccccc3)nc(N)n3c(=O)n(CC45C6C7C4C4C5C6C74F)nc23)cc(CO)n1 (stereo not shown) [Example 2-60] , what value of Ki is listed for human adenosine A1 receptor (Homo sapiens)?
Result: 200

###

# Assayed Target: human adenosine A2A receptor (Homo sapiens)
# Construct: expressed in transfected cells; host or cells: HEK293 cells infected with BacMam
# Sequence (P29274 whole entry): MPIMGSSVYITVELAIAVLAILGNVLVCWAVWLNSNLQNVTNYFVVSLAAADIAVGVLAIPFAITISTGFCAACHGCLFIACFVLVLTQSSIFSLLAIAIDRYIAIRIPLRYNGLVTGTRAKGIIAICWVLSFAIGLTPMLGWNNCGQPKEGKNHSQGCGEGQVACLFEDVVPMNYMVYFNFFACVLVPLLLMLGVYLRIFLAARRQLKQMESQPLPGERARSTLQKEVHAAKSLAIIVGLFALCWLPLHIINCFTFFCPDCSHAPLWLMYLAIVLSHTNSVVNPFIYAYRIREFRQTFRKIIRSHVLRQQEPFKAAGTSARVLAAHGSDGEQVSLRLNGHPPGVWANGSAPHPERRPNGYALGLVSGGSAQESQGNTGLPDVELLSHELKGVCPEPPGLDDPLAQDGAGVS
# Test: Inhibition binding assay, human adenosine A2A receptor membranes, [3H]ZM241385
# Condition Label: 1 nM [3H]ZM241385, HEK293-hA2A membranes, 25° C., 1 h; IC50 converted to Ki with Cheng-Prusoff; read-out: A2A pKi (converted)
Entries whose Ki is below 2 nM take class 1; entries at or above 2 nM take class 0.

Recorded results for 8 compounds are shown here.
Cc1cc(-c2c(-c3ccccc3)nc(N)n3c(=O)n(CC4CCCCO4)nc23)cc(C)n1 (single isomer, unassigned) [Example 2-82-iso-1] | class 1
Cc1cc(-c2c(-c3ccccc3)nc(N)n3c(=O)n(C[C@@H]4CNCCO4)nc23)cc(C)n1 [Example 2-71] | class 0
Nc1nc(-c2ccccc2)c(-c2cc(Cl)nc(CO)c2)c2nn(CCC(F)(F)F)c(=O)n12 [Example 2-45] | class 1
Cc1cc(-c2c(-c3ccncc3)nc(N)n3c(=O)n(CCC(F)(F)F)nc23)cc(C)n1 [Example 2-38] | class 0
Cc1cc(-c2c(-c3ccccc3)nc(N)n3c(=O)n(CC(C)C)nc23)cc(C)n1 [Example 2-21] | class 0
Cc1cc(-c2c(-c3ccccc3)nc(N)n3c(=O)n(CC4CCCOC4)nc23)cc(C)n1 (stereo not drawn) [Example 2-81] | class 1
C/C=C(/C)c1nc(N)n2c(=O)n(CCC(F)(F)F)nc2c1-c1cc(C)nc(C)c1 [Example 3-9] | class 0
[2H]c1c([2H])c([2H])c(-c2nc(N)n3c(=O)n(CCC(F)(F)F)nc3c2-c2cc(C)nc(C)c2)c([2H])c1[2H] [Example 2-32] | class 1

Ask: Lab log: compare recorded Ki with 2 nM; is it strictly lower for Cc1cc(-c2c(-c3ccccc3)nc(N)n3c(=O)n(CCc4ccc(C(=O)O)cc4)nc23)cc(C)n1 [Example 1-85] ?
Result: class 0

Ask: Quick one: Cc1cc(-c2c(-c3ccccc3)nc(N)n3c(=O)n(C(CC4COCCN4)c4ccccc4)nc23)cc(C)n1 (stereo not drawn) [Example 1-103]
Result: class 0

Ask: Quick one: COc1ncccc1Cn1nc2c(-c3cc(C)nc(CO)c3)c(-c3ccccc3)nc(N)n2c1=O [Example 1-57]
Result: class 1

Ask: Quick one: Cc1cc(-c2c(-c3ccccc3)nc(N)n3c(=O)n(CC(=O)N(C)C4CC4)nc23)cc(C)n1 [Example 2-28]
Result: class 1

Ask: Quick one: Cc1cc(-c2c(-c3ccccc3)nc(N)n3c(=O)n(Cc4ccccc4C)nc23)cc(C)n1 [Example 1-17]
Result: class 1

Values were extracted from patent US12528815B2.
